Procedure Summary: chemical genetic growth profiling, strain panel (AID 1159580);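 note: tested at 20 µM; growth read once vehicle control cultures reached saturation at 30 °C; 1 = growth at the plate median or of vehicle wells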
Assay Context: S. cerevisiae deletion strains, growth OD, locus YKL101W, strain HSL1
The whole screen tested about 5,500 compounds, of which about 2,000 (36%) were called active. Inconclusive results (about 18%) are left out. Cut-off read from the data, not from the text of the source: active = normalized growth mostly below about 0.91 (no sharp cut-off); inconclusive = no clear call, values can overlap the other calls; inactive = mostly above about 0.92. Some of the results follow.
Allowed answers: yes (1) for active, no (0) for inactive

Take a look at these entries with their results.
molecule=Cc1nc(C(F)(F)F)c(C(=O)O/N=C(/N)c2ccc(Cl)cc2)s1 cat="no (0)"
molecule=O=C(CO/N=C\c1ccc(Cl)cc1Cl)NNC(=S)Nc1cc(Cl)ccc1Cl cat="no (0)"
molecule="OC(c1ccc(C(F)(F)F)cc1)c1cccc(C(F)(F)F)c1 (centres undefined)" cat="no (0)"

Continue with the molecule presented below.
Could you kindly confirm the outcome this assay logged for COc1cc(C(=O)Oc2c(Cl)cc(Cl)cc2C=Nc2cccc([N+](=O)[O-])c2)cc(OC)c1OC ?
yes (1)

###

Procedure Summary: chemical genetic growth profiling, strain panel (AID 1159580)
Assay Context: S. cerevisiae deletion strains, growth OD, locus YKL190W, strain CNB1, stronger effect = lower value
Screen size: about 5,500 compounds; about 2,000 (36%) were called active. Not shown: some 18% with an inconclusive outcome. The list shows a part of the results.
For each entry below, report its normalized growth value.
Give bare numbers.

molecule=CC1=C(/C=C/C(C)=C/C=C/C(C)=C/C(=O)O)C(C)(C)CCC1 readout_value=1.01

Each of the following entries comes with a recorded value; kindly state normalized growth for each.
1. O=S(=O)(c1cc(Br)c(Br)s1)N1CCCCC1
2. C/C=C/c1ccc(OC)cc1
3. O=C(O)CC(CC(=O)O)c1ccc(C(F)(F)F)cc1
4. CCOC(=O)c1ccc(N)cc1
5. O=C1N=C(O)CN1/N=C\c1ccc(-c2ccc([N+](=O)[O-])cc2)o1
6. CC12CCC3C(CC=C4CC(O)CCC43C)C1CCC2=O (centres undefined)

1. 1.02
2. 1.01
3. 1
4. 0.988
5. 1.02
6. 0.929

Each of the following entries comes with a recorded value; kindly state normalized growth for each.
1. c1ccc2[nH]c(-c3cscn3)nc2c1
2. O=C(O)CCCCC1SCC2NC(=O)NC21 (centres undefined)

[0.993, 1.03]

Each of the following entries comes with a recorded value; kindly state normalized growth for each.
1. CC[C@@]1(C2O[C@@H](C3O[C@@](O)(CC)[C@H](C)C[C@@H]3C)C[C@@H]2C)CC[C@H]([C@]2(C)CCC3(C[C@H](O)[C@@H](C)[C@@H]([C@H](C)[C@@H](OC)[C@H](C)C(=O)O)O3)O2)O1 (some centres undefined)
2. CC(=O)c1ccc(-c2ccc(C(C)=O)cc2)cc1
3. CC[C@@H]1[C@@H](O)N2C3C[C@H]1C1C(O)[C@]4(C[C@@H]12)c1ccccc1N(C)[C@@H]34 (some centres undefined)
4. O=C(O)CCCCCCCCCCCCC1C=CCC1 (centres undefined)
5. Cc1ccc(Cl)cc1NC(=S)NCCO

1. 0.981
2. 1
3. 0.989
4. 0.761
5. 1

Each of the following entries comes with a recorded value; kindly state normalized growth for each.
1. C=CCN1CC[C@]23c4c5ccc(O)c4OC2C(=O)CC[C@@]3(O)[C@H]1C5 (some centres undefined)
2. COc1cc(C(=O)O)c(O)c2c1OCO2
3. COc1ccc(/C=C/c2cc(O)cc(O[C@@H]3O[C@H](CO)[C@@H](O)[C@H](O)[C@H]3O)c2)cc1O
4. CC(=O)OC/C=C(C)/C=C/C=C(C)/C=C/C1=C(C)CCCC1(C)C
5. N/C(=N\OC(=O)c1ccno1)c1ccc(C(F)(F)F)cc1

1
1.01
1
1.01
1.01

###

Procedure Summary: chemical genetic growth profiling, strain panel (AID 1159580)
Assay Context: S. cerevisiae deletion strains, growth OD, locus YOL147C, strain pex11
Screen size: about 5,500 compounds; about 2,000 (36%) were called active. Roughly 18% stayed inconclusive and do not appear here. Rule as the data show it: active = normalized growth mostly below about 0.91 (no sharp cut-off); inconclusive = no clear call, values can overlap the other calls; inactive = mostly above about 0.92. Some of the results follow.
Allowed answers: active, inactive

compound="CN(Cc1cnc2nc(N)nc(N)c2n1)c1ccc(C(=O)NC(CCC(=O)O)C(=O)O)cc1 (configuration not stated)" cat=inactive

Could you kindly confirm the outcome this assay logged for C=CCc1cc(OC)c2c(c1OC)OCO2 ?
inactive

Could you kindly confirm the outcome this assay logged for COc1cc(O)cc(/C=C/c2ccccc2)c1 ?
active

Could you kindly confirm the outcome this assay logged for O=C(O)P(=O)(O)O ?
inactive

###

For each entry below, report its normalized growth value.
Procedure Summary: chemical genetic growth profiling, strain panel (AID 1159580);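 note: tested at 20 µM; growth read once vehicle control cultures reached saturation at 30 °C; 1 = growth at the plate median or of vehicle wells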
Assay Context: S. cerevisiae deletion strains, growth OD, locus YLR342W, strain FKS1, stronger effect = lower value
The whole screen tested about 5,500 compounds, of which about 2,000 (36%) were called active. Inconclusive results (about 18%) are left out. The list shows a part of the results.
One number for each entry.

molecule="CCCCC(CC)CN=C(N)NC(N)=NCCCCCCN=C(N)NC(N)=NCC(CC)CCCC (configuration not stated)" readout_value=0.0635
molecule="CN1CCc2cccc3c2C1Cc1ccc(O)c(O)c1-3 (configuration not stated)" readout_value=0.855
molecule="Nc1nc(N)c2nc(CNc3ccc(C(=O)NC(CCC(=O)O)C(=O)O)cc3)cnc2n1 (configuration not stated)" readout_value=1.01
molecule=C[C@](N)(Cc1ccc(O)cc1)C(=O)O readout_value=0.998
molecule="CCOC(=O)C(C)(N)Cc1ccc(O)c(O)c1 (configuration not stated)" readout_value=0.977
molecule=C[C@](N)(Cc1ccc(O)c(O)c1)C(=O)O readout_value=0.967
molecule="OC1CCCCC1N1CCC(c2ccccc2)CC1 (configuration not stated)" readout_value=0.981
molecule="N[C@@H](CCC(=O)N[C@@H](CCSC(CC(=O)O)C(=O)O)C(=O)NCC(=O)O)C(=O)O (some centres not stated)" readout_value=0.99

Each of the following entries comes with a recorded value; kindly state normalized growth for each.
1. Nc1nc2ncc(CNc3ccc(C(=O)N[C@@H](CCC(=O)O)C(=O)O)cc3)nc2c(=O)[nH]1
2. O=c1cccc2n1C[C@H]1CNCC2C1
3. CC[C@]12CCCN3CCc4c(n(c5ccccc45)[C@](O)(C(=O)OC)C1)[C@@H]32

[0.995, 1.01, 0.989]

Each of the following entries comes with a recorded value; kindly state normalized growth for each.
1. NC(=O)c1cc[n+](CC2=C(C(=O)O)N3C(=O)C(NC(=O)C(c4ccccc4)S(=O)(=O)[O-])C3SC2)cc1 (configuration not stated)
2. CN(C)CCCO[C@H]1[C@@H](C(O)CO)OC2OC(C)(C)O[C@@H]21 (some centres not stated)
3. CCCNC(C)C(=O)Nc1ccccc1C (configuration not stated)
4. C[C@@H]1C[C@@H]([C@H](O)CC2CC(=O)NC(=O)C2)C(=O)[C@@H](C)C1
5. CC[C@]12CCCN3CCc4c(n(c5ccccc45)C(=O)C1)[C@@H]32
6. Nc1nc2c(c(=O)[nH]1)N(C=O)C(CNc1ccc(C(=O)N[C@@H](CCC(=O)O)C(=O)O)cc1)CN2 (some centres not stated)
7. CC(Cc1ccc(O)c(O)c1)(NN)C(=O)O (configuration not stated)
8. CC1(C)O[C@@H]2[C@@H](CO[C@@]3(COS(N)(=O)=O)OC(C)(C)O[C@@H]23)O1

1. 0.973
2. 0.985
3. 1.01
4. 0.0659
5. 0.999
6. 0.955
7. 0.992
8. 1.03

Each of the following entries comes with a recorded value; kindly state normalized growth for each.
1. CCn1cc(C(=O)O)c(=O)c2cnc(N3CCCC3)nc21
2. COc1cc2c(cc1O)CC1c3c(cc(O)c(OC)c3-2)CCN1C (configuration not stated)
3. O=C(O)c1cc(O)c(O)c(O)c1

1. 1
2. 1
3. 1.03

###

Procedure Summary: chemical genetic growth profiling, strain panel (AID 1159580);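 note: tested at 20 µM; growth read once vehicle control cultures reached saturation at 30 °C; 1 = growth at the plate median or of vehicle wells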
Assay Context: S. cerevisiae deletion strains, growth OD, locus YBL061C, strain skt5
The whole screen tested about 5,500 compounds, of which about 2,000 (36%) were called active. Another 18% or so got no clear call; they are omitted. No stated cut-off is given here; in the data, active means normalized growth mostly below about 0.91 (no sharp cut-off); inconclusive means no clear call, values can overlap the other calls; inactive means mostly above about 0.92. This is one part of the list.
Allowed answers: T for active, F for inactive

compound=CCn1cc(C(=O)O)c(=O)c2cnc(N3CCCC3)nc21 cat=F

Could you kindly confirm the outcome this assay logged for CC12CCC3C(CC=C4CC(O)CCC43C)C1CCC2=O (stereo unspecified) ?
F

Could you kindly confirm the outcome this assay logged for CC(=O)O[C@H]1CC[C@@]2(C)C(=CCC3C2CC[C@]2(C)C(=O)CCC32)C1 (stereo partly specified) ?
F

Could you kindly confirm the outcome this assay logged for C[C@]12CCC3c4ccc(OS(=O)(=O)O)cc4CCC3C1CCC2=O (stereo partly specified) ?
F

###

Procedure Summary: chemical genetic growth profiling, strain panel (AID 1159580);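 note: tested at 20 µM; growth read once vehicle control cultures reached saturation at 30 °C; 1 = growth at the plate median or of vehicle wells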
Assay Context: S. cerevisiae deletion strains, growth OD, locus YER015W, strain faa2
In all, about 5,500 compounds went through this assay and about 2,000 (36%) were called active. Not shown: some 18% with an inconclusive outcome. Rule as the data show it: active = normalized growth mostly below about 0.91 (no sharp cut-off); inconclusive = no clear call, values can overlap the other calls; inactive = mostly above about 0.92. Some of the results follow.
Allowed answers: active, inactive

Take a look at these entries with their results.
compound=CCOC(N)=O cat=inactive
compound="CC12CCCC(O)(C1)C1CC(C)(C)C1CC2 (stereo unspecified)" cat=inactive
compound="COc1cc(C)c2c(c1C=O)Oc1c(c(C)c(O)c3c1C(O)OC3=O)OC2=O (stereo unspecified)" cat=inactive
compound="CC1(C)CC2C1CCC1(C)OC1CCC2(C)O (stereo unspecified)" cat=inactive
compound=COc1ccc(/C=C/c2cc(O)cc(O)c2)cc1 cat=inactive

Could you kindly confirm the outcome this assay logged for O=C(O)c1cc(=O)c(O)c2c(O)c(O)c(O)cc2c1 ?
active

Could you kindly confirm the outcome this assay logged for CC1=CC(=O)CC(C)(C)C1(O)/C=C/C(C)=C\C(=O)O (stereo unspecified) ?
inactive

Could you kindly confirm the outcome this assay logged for NC(=O)c1cc[n+](CC2=C(C(=O)O)N3C(=O)C(NC(=O)C(c4ccccc4)S(=O)(=O)[O-])C3SC2)cc1 (stereo unspecified) ?
inactive

Could you kindly confirm the outcome this assay logged for O=C(/C=C/c1ccc(O)c(O)c1)O[C@@H]1C[C@](O)(C(=O)O)C[C@@H](O)[C@H]1O ?
inactive

Could you kindly confirm the outcome this assay logged for CC(=O)O[C@H]1CC[C@@]2(C)C(=CCC3C2CC[C@]2(C)C(=O)CCC32)C1 (stereo partly specified) ?
inactive

Could you kindly confirm the outcome this assay logged for OC/C=C/c1ccc(O)c(O)c1 ?
inactive
